# credit: PubChem BioAssay (NCI)

Tested on: HCT-15 colon
run_description: NCI-60 one-dose screen, 48 h (100 = growth as untreated, 0 = no growth, -100 = all killed)
particulars: 10 µM unless noted
About 83,000 compounds went through this panel and 20% of them were active in at least one assay; those are over-represented in the sample as a whole.
// growth lookup, one value per entry
Please reply with the bare figure in % and do not write the unit itself.

test_smiles	endpoint_unit	growth
COc1ccc(-n2nc(C)c3c(Nc4ccc(NC(=O)Nc5cc(C(F)(F)F)ccc5F)cc4)ncnc32)cc1	%	8.66
O=C(N/N=C/c1ccccc1O)c1ccccc1Nc1ccnc(C(F)(F)F)c1	%	24.6
CC[C@@H]1O[C@H](O[C@@H](c2cnc[nH]2)[C@H](NC(=O)c2nc([C@H](CC(N)=O)NC[C@@H](N)C(N)=O)nc(N)c2C)C(=O)N[C@H](C)[C@H](O)[C@H](C)C(=O)N[C@@H](C(=O)NCCc2nc(-c3nc(C(=O)NCCCCN=C(N)N)cs3)cs2)[C@@H](C)O)[C@H](O[C@@H]2O[C@H](CO)[C@H](O)[C@H](OC(N)=O)[C@@H]2O)[C@H](C)[C@@H]1C	%	45.1

Then this compound:
(Q) Return reported growth; argument: CCCCN1CCCn2c1nc1c2c(=O)n(CCC)c(=O)n1CCC
(A) 106

====

Test system: TK-10 renal
run_description: NCI-60 one-dose screen, 48 h (100 = growth as untreated, 0 = no growth, -100 = all killed)
particulars: 10 µM unless noted
Compounds without any hit were thinned out: in the full panel of roughly 83,000, 20% have a hit.
Entries are sorted into classes by growth as follows: one: < 40%; two: ≥ 40% and < 80%; three: ≥ 80%

molecule	qualitative_label
O=C1NC(=O)C(c2ccc(Cl)cc2Cl)N1 (stereo not given)	three
Fc1ccc2[nH]cc(SSc3c[nH]c4ccc(F)cc34)c2c1	three

(Q) Class for COc1ccc(C2Nc3c(c(C(C)(C)C)nn3-c3ccccc3)C(=O)CS2)cc1 (stereo not given) ?
(A) three

(Q) Band for the recorded growth of O=c1nc2oc3ccc4ccccc4c3cc-2s1 ?
(A) two

(Q) Which class does NC(CSC(c1ccccc1)(c1ccccc1)c1ccc(Cl)cc1)C(=O)O (stereo not given) fall in?
(A) two

(Q) Input O=C1NC(=Nc2ccc(O)cc2)S/C1=C\c1cccc(Cl)c1 ; output its category
(A) three

====

The following compounds are shown together with reported growth values.
Test system: COLO 205 colon
run_description: NCI-60 one-dose screen, 48 h (100 = growth as untreated, 0 = no growth, -100 = all killed)
particulars: 10 µM unless noted
The panel holds about 83,000 compounds, 20% with a hit somewhere; the sample as a whole holds those more often.
Write the value in % as a bare number.

Study these solved cases before continuing.
compound	growth, %
COc1cc(-c2ccc3c(c2)NC(=O)/C3=C\c2ccc[nH]2)ccc1O	25.2
CN(C)C(=S)N=Nc1c(O)[nH]c2ccccc12	19.7
COc1cccc(-c2nc3sccn3c2-c2ccnc(NCCNS(=O)(=O)c3ccc(F)cc3)c2)c1	23.4
FC(F)(F)Oc1ccc2nc3nc4ccc[nH]c4cc3c2c1	95.4
COc1cc(-c2nn(-c3ccc(Br)cc3)cc2C(=O)O)ccc1O	109

(Q) Write down the reported growth of N#Cc1c(-c2ccc(Cl)cc2)nc(N=Nc2c(O)[nH]c3ccc(Cl)cc23)nc1N1CCOCC1 , test system: COLO 205 colon.
(A) 105
